measure-name: melting point

Prompt: Answer with reported melting point of Cc1c[nH]c(Cc2ccc(O)cc2)n1
Response: 193 to 194 °C

Prompt: Answer with reported melting point of COC(=O)COc1ccc(C2C(=O)Oc3c2cc(C(C)(C)C)cc3C(C)(C)C)cc1 (stereo not given)
Response: 115 to 117 °C

Prompt: Answer with reported melting point of COC(=O)c1c(C)[nH]c(=S)n1Nc1cccc(Cl)c1
Response: 194 to 196 °C

Prompt: Answer with reported melting point of OCCc1ccc2cc(Br)ccc2n1
Response: 103 to 104 °C

Prompt: Answer with reported melting point of O=c1c(CCCl)n[nH]c2ccccc12
Response: 201 to 203 °C

Prompt: Answer with reported melting point of C=CCOc1ccc2c(=O)c(C)c(-c3ccccc3)oc2c1C(=O)C=Cc1cc(OC)c(OC)c(OC)c1
Response: 121 to 123 °C

Prompt: Answer with reported melting point of CCCCCCCCCCCCCCCCCC(O)c1ccc(Cl)c(C(=O)O)c1 (stereo not given)
Response: 106 to 107 °C

Prompt: Answer with reported melting point of CC(C)Oc1cc(CCCOc2nc(Cc3ccccc3)sc2CC(=O)O)n(Cc2ccc(Cl)cc2Cl)n1
Response: 106 to 108 °C

Prompt: Answer with reported melting point of CCn1cnc2cc(C(F)(F)F)c(Cl)c(N)c21
Response: 192 to 193 °C

Prompt: Answer with reported melting point of CCOc1ccc2c(c1)n(C(C)(C)CC(C)(C)C)c(=O)n2S(=O)(=O)c1ccc([N+](=O)[O-])cc1OC
Response: 158 °C

Prompt: Answer with reported melting point of O=C(O)C1(O)CCCN(Cc2ccccc2)C1 (stereo not given)
Response: 104 °C

Prompt: Answer with reported melting point of CSc1nc(-c2ccc(S(C)(=O)=O)cc2)n(-c2ccc(C)cc2)c(=O)c1C#N
Response: 242 to 244 °C

Prompt: Answer with reported melting point of CC(c1ccnc(N)c1)C(O)(Cn1cncn1)c1ccc(F)cc1F (stereo not given)
Response: 182 to 185 °C

Prompt: Answer with reported melting point of COc1cc2ncc(C#N)c(Nc3ccc(F)c(Cl)c3)c2cc1NC(=O)C=CCN(C)CCO
Response: 210 to 214 °C

Prompt: Answer with reported melting point of C=Cc1ccc2c(NCc3ccc(NC(=O)C4CCN(Cc5ccccc5)CC4)cc3)nc(N(C)C)nc2c1
Response: 180 °C

Prompt: Answer with reported melting point of CCCn1c(=O)c2c(nc(/C=C/c3ccc(OC)c(OC(C)=O)c3)n2C)n(CCC)c1=O
Response: 201 to 202 °C

Prompt: Answer with reported melting point of O=C(O)COCN(c1ccc(CN2CCN(Cc3ccccc3)C(=O)C2=O)cc1)c1ncccn1
Response: 85 to 90 °C

Prompt: Answer with reported melting point of C=CCOP(=O)(OCC=C)C(N)=O
Response: 91 to 94 °C

Prompt: Answer with reported melting point of C#CCn1c(C(F)(F)F)c(C=O)c2ccccc21
Response: 106 °C

Prompt: Answer with reported melting point of CCOc1ccc(F)cc1C(=O)c1sc2ncc(C#N)cc2c1N
Response: 196 °C

###

measure-name: melting point

Prompt: Answer with reported melting point of Nc1ncnc2cc(CCl)ccc12
Response: > 300 °C

Prompt: Answer with reported melting point of O=Cc1c(F)cccc1N1CCN(Cc2ccccc2)CC1
Response: 94 to 95 °C

Prompt: Answer with reported melting point of Cc1cncc(C)c1-c1c(C)cc(C=Cc2cc(C(C)(C)C)c(O)c(C(C)(C)C)c2)cc1C
Response: 234 to 235 °C

Prompt: Answer with reported melting point of O=[N+]([O-])c1cnccc1NCc1ccc(F)cc1
Response: 137 °C

Prompt: Answer with reported melting point of CCC1=C(O)C(=O)CO1
Response: 47 to 48 °C

Prompt: Answer with reported melting point of CC(C)Sc1cc([Si](C)(C)C)oc1C(=O)Nc1nnn[nH]1
Response: 181 to 182 °C

Prompt: Answer with reported melting point of Cc1cc(-c2nnc3c4ccccc4c(OCc4ccn(C)n4)nn23)no1
Response: 243 to 244 °C

Prompt: Answer with reported melting point of CCN1CCN(c2cc(-c3ccccc3)c3ccccc3n2)CC1
Response: 87 to 88 °C

Prompt: Answer with reported melting point of O=C(c1cc(Cl)cc(Cl)c1)N1CCN(Cc2ccccc2)C[C@H]1Cc1c[nH]c2ccccc12
Response: 93 to 98 °C

Prompt: Answer with reported melting point of CC1(Cl)C=CC2=C(c3cccc(CCCC(=O)O)c3)C(CC(=O)Nc3ccc(F)cc3C(F)(F)F)C(=O)OC2=C1 (stereo not given)
Response: 196 °C

###

So I've got a bunch of compounds here, and I need their melting point values.

Prompt: Answer with reported melting point of COC(=N)Nc1nc(OC)cc(OC)n1
Response: 91 to 95 °C

Prompt: Answer with reported melting point of NC(P(=O)(O)O)P(=O)(O)O
Response: 255 to 265 °C

Prompt: Answer with reported melting point of Cc1cc(C(C)(C)C)c(O)c(C)c1CC(=O)N1CCN(C(=O)Cc2c(C)cc(C(C)(C)C)c(O)c2C)CC1
Response: 305 to 310 °C

Prompt: Answer with reported melting point of O=C(C1CCCCO1)N1CCNCC1 (configuration not stated)
Response: 53 to 58 °C

Prompt: Answer with reported melting point of CCCOc1cc(C(=O)NC2CC(C)(C)NC(C)(C)C2)ccc1-c1cc2cc(Cl)c(Cl)cc2[nH]1
Response: > 250 °C

Prompt: Answer with reported melting point of Cc1nnc(CN(C)C)n1-c1ccc(Br)cc1C(=O)c1ccccn1
Response: 127 to 128 °C

Prompt: Answer with reported melting point of C/C(=C/C(=O)O)c1ccn(-c2c(C)cccc2C)c1
Response: 78 to 80 °C

Prompt: Answer with reported melting point of CC(C)(C)OC(=O)NCCNC(=O)c1nc(Cl)sc1Br
Response: 142 to 144 °C

Prompt: Answer with reported melting point of Cn1cc(Cc2cc3cccc(-c4cccc(C(=O)NCCO)c4)c3s2)cc(Cl)c1=O
Response: 210 to 211 °C

Prompt: Answer with reported melting point of C=CCOc1cccc(N2C(=O)C3=C(CCCC3)C2=O)c1
Response: 88 to 90 °C

Prompt: Answer with reported melting point of Fc1ccc(Cn2c(CC3CCN(Cc4ccccc4)CC3)nc3cncnc32)cc1
Response: 136 °C

Prompt: Answer with reported melting point of COC(=O)CCCc1cc2nc(Cl)ccc2n1S(=O)(=O)c1ccc2c(c1)CCN2C(C)=O
Response: 123 °C

Prompt: Answer with reported melting point of CN(Cc1ccc(NC(=O)C2=Cc3cc(-c4ccc(OC(F)(F)F)cc4)ccc3OCC2)cc1)C1CCOCC1
Response: 187 to 188 °C

Prompt: Answer with reported melting point of C=C(C)C(=O)N[C@@H](CCC(=O)O)C(=O)O
Response: 128 to 130 °C

Prompt: Answer with reported melting point of CCOc1cc(Oc2cc(C)[nH]n2)ccc1[N+](=O)[O-]
Response: 123 to 124 °C

Prompt: Answer with reported melting point of COc1cc(-n2cc(C(=O)O)c(=O)c3cc(F)c(F)c(C)c32)ccc1F
Response: > 280 °C

Prompt: Answer with reported melting point of CN(C(=O)OC(C)(C)C)[C@H](Cc1ccc2ccccc2c1)C(=O)N1CCc2ccccc2C1
Response: 121 to 126 °C

Prompt: Answer with reported melting point of Nc1sc2c(c1C(=O)c1cc3ccccc3o1)CCCC2
Response: 86 to 89 °C

Prompt: Answer with reported melting point of COc1ccc2c(c1)C(Cl)(C(F)(F)F)OC(=O)N2 (configuration not stated)
Response: 112 to 114 °C

Prompt: Answer with reported melting point of CCC(OC(=O)CO)c1ccc(Cl)c2nc3n(c12)CCCN3c1ccc(Cl)cc1Cl (configuration not stated)
Response: 191 to 193 °C

Prompt: Answer with reported melting point of BrCCCCCc1nnnn1C1CCCCC1
Response: 57 to 59 °C

Prompt: Answer with reported melting point of COc1ccccc1OCCNCCCc1c[nH]c2ccc(F)cc12
Response: 125 to 126 °C

Prompt: Answer with reported melting point of CCN(CCO)CCN1C(=O)c2ccccc2C1=O
Response: 56 to 58 °C

Prompt: Answer with reported melting point of O=C(NCCCCN1CCC(c2ccc3c(c2)CCCC3)CC1)c1ccc(NC(=O)c2ccc(Cl)cc2)cc1
Response: 285 °C

Prompt: Answer with reported melting point of CCCN1CC(c2cccc(O)c2)CC1C (configuration not stated)
Response: 123 to 124 °C

Prompt: Answer with reported melting point of CN1C(=O)[C@H](N)N=C(C2CCCCC2)c2ccccc21
Response: 130 to 133 °C

Prompt: Answer with reported melting point of O=Nc1c(-c2ccccc2)nc2ccccn12
Response: 165 to 167 °C

Prompt: Answer with reported melting point of CSc1cc2c(cc1C(F)(F)F)N(C(=O)Nc1cccc(C(=O)NN3CCC(N(C)C)C3)c1)CC2 (configuration not stated)
Response: 114 to 116 °C

Prompt: Answer with reported melting point of O=C1c2cc(F)ccc2OC[C@H]2CCCN12
Response: 80 to 82 °C

Prompt: Answer with reported melting point of CC(CC(=O)O)CC(=O)Nc1cccc(-c2ccnc3c(C(=O)c4cccs4)cnn23)c1 (configuration not stated)
Response: 135 to 136 °C

Prompt: Answer with reported melting point of CN(C)S(=O)(=O)Nc1ccc2[nH]cc(CC#N)c2c1
Response: 147 to 150 °C

Prompt: Answer with reported melting point of CC(C)(C)[Si](C)(C)OC1C(=O)N(S(=O)(=O)c2ccc(N3CCCCCC3)cc2)CC1O (configuration not stated)
Response: 121 °C

Prompt: Answer with reported melting point of c1ccc(-c2nsc3nc4ccccc4n23)nc1
Response: 173 to 174 °C

Prompt: Answer with reported melting point of O=C1C(=O)c2ccc(Cl)cc2C2=C1SCC1(CCNCC1)O2
Response: > 300 °C

Prompt: Answer with reported melting point of COC(=O)COc1cccc2c1c(C(=O)C(N)=O)c(C)n2Cc1cccc2ccccc12
Response: 188 to 190 °C

Prompt: Answer with reported melting point of O=S1Cc2ccccc2-c2ccccc21 (configuration not stated)
Response: 97 to 100 °C

Prompt: Answer with reported melting point of Cc1c(C)c(Br)c2ncccc2c1C
Response: 180 °C

Prompt: Answer with reported melting point of COc1cc2c(Nc3ccc(Cl)cc3F)ncnc2cc1OCc1ccnc(C#N)c1
Response: 209 to 213 °C

Prompt: Answer with reported melting point of C[C@@H](SC(CO)CO)[C@](O)(Cn1cncn1)c1ccccc1F
Response: 121 to 123 °C

Prompt: Answer with reported melting point of CN(c1ccc(C(C(F)(F)Cl)C(F)(F)Cl)cc1)S(C)(=O)=O
Response: 140 to 142 °C

Prompt: Answer with reported melting point of C=CCc1cc2c(c(CC=C)c1O)N(CC=C(C)C)C(=O)CC2
Response: 94 to 96 °C

Prompt: Answer with reported melting point of CCOC(=O)c1ccc(NC(=O)c2ccc3c(c2)SCCC3(C)C)cc1
Response: 148 to 150 °C
